Measured values drawn from patent US20230414775A1 for this set.

- Tested on: HCT15 cells
- test summary: HCT15 anti-proliferation / cell killing assay (CellTiter-Glo), with or without verapamil
- Assay type: cell-based, human
- recorded conditions: Homo sapiens, HCT-15, HCT15 cells pre-treated with verapamil, 120 h, read-out: HCT-15 with verapamil
quantity measured: IC50 (nM)
One number for each entry, in nM.

INSERT INTO results (compound, observed_measurement) VALUES
  ('CCCCCCN(C(=O)[C@@H](NC(=O)[C@H]1CCCCN1CCO)[C@@H](C)CC)[C@H](C[C@@H](OCC)c1nc(C(=O)N[C@@H](Cc2ccc(N)cc2)CC(C)(C)C(=O)O)cs1)C(C)C', 0.284);

State recorded IC50 for all listed compounds.
1. CCCCCCN(C(=O)[C@@H](NC(=O)[C@H]1CCCCN1C)[C@@H](C)CC)[C@H](C[C@@H](OC(=O)NCC(O)CO)c1nc(C(=O)N[C@@H](Cc2ccc(NCCO)cc2)CC(C)(C)C(=O)O)cs1)C(C)C (some centres unmarked)
2. CCCCCCN(C(=O)[C@@H](NC(=O)[C@@]1(C)CCCN1)[C@@H](C)CC)[C@H](C[C@@H](OC(C)=O)c1nc(C(=O)N[C@@H](Cc2ccc(N)c(F)c2)CC(C)(C)C(=O)O)cs1)C(C)C [Compound P15, reference compound]
3. CCCCCCN(C(=O)[C@@H](NC(=O)[C@H]1CCCCN1CCOCCN)[C@@H](C)CC)[C@H](C[C@@H](OC(C)=O)c1nc(C(=O)N[C@@H](Cc2ccc(N)cc2)CC(C)(C)C(=O)O)cs1)C(C)C

*A*
1. 33.6
2. 0.19
3. 5.3

###

- test summary: Plasma stability test of payloads (LC-MS/MS, half-life)
- Type: in vitro ADME
- recorded conditions: human plasma, 37° C., time points 0-24 h, read-out: Human plasma stability T1/2 (converted)
Kindly state half-life at 2 μM for each of the entries shown.

These solved cases illustrate the format of a correct answer.
INSERT INTO measurements (compound, quantity_measured, observed_measurement) VALUES
  ('CCCCCCN(C(=O)[C@@H](NC(=O)[C@H]1CCCCN1C)[C@@H](C)CC)[C@H](C[C@@H](OCCCO)c1nc(C(=O)N[C@@H](Cc2ccc(N)c(F)c2)CC(C)(C)C(=O)O)cs1)C(C)C (mixture of isomers)', 'half-life at 2 μM', '63.5 h'),
  ('CCCCCCN(C(=O)[C@@H](NC(=O)[C@H]1CCCCN1C)[C@@H](C)CC)[C@H](C[C@@H](OC(C)=O)c1nc(C(=O)N[C@@H](Cc2ccc(NCC(=O)O)cc2)CC(C)(C)C(=O)O)cs1)C(C)C (racemic)', 'half-life at 2 μM', '327 h'),
  ('CCCCCCN(C(=O)[C@@H](NC(=O)[C@H]1CCCCN1C)[C@@H](C)CC)[C@H](C[C@@H](OC(C)=O)c1nc(C(=O)N[C@@H](Cc2ccc(NCCO)cc2)CC(C)(C)C(=O)O)cs1)C(C)C (racemic)', 'half-life at 2 μM', '71 h');

Now turn to the next compound.
The measured half-life at 2 μM associated with CCCCCCN(C(=O)[C@@H](NC(=O)[C@H]1CCCCN1C)[C@@H](C)CC)[C@H](C[C@@H](OCC)c1nc(C(=O)N[C@@H](Cc2ccc(NCCO)cc2)CC(C)(C)C(=O)O)cs1)C(C)C (racemic) reads 103 h

###

- Test system: HCT15 cells
- test summary: HCT15 anti-proliferation / cell killing assay (CellTiter-Glo), with or without verapamil
- Format: cell-based, human
- recorded conditions: Homo sapiens, HCT-15, HCT15 cells pre-treated with verapamil, 120 h, read-out: HCT-15 with verapamil
Give IC50 for every item shown.
Give bare numbers, in nM.

INSERT INTO results (compound, observed_measurement) VALUES
  ('CCCCCCN(C(=O)[C@@H](NC(=O)[C@H]1CCCCN1C)[C@@H](C)CC)[C@H](C[C@@H](OC(=O)NCCOCCOCCO)c1nc(C(=O)N[C@@H](Cc2ccc(N)c(F)c2)CC(C)(C)C(=O)O)cs1)C(C)C (mixture of isomers)', 0.158),
  ('CCCCCCN(C(=O)[C@@H](NC(=O)[C@H]1CCCCN1C)[C@@H](C)CC)[C@H](C[C@@H](OC(=O)NCCO)c1nc(C(=O)N[C@@H](Cc2ccc(N)c(F)c2)CC(C)(C)C(=O)O)cs1)C(C)C (mixture of isomers)', 0.255);

Next item in the queue.
Please fill in: IC50 reported for CCCCCCN(C(=O)[C@@H](NC(=O)[C@H]1CCCCN1C)[C@@H](C)CC)[C@H](C[C@@H](OC(=O)NCC(O)CO)c1nc(C(=O)N[C@@H](Cc2ccc(N)cc2)CC(C)(C)C(=O)O)cs1)C(C)C (stereo partly drawn) = 2.23

###

Consider the following compounds; for each one, report its log10 of IC50.
- System: HCT15 cells
- test summary: HCT15 anti-proliferation / cell killing assay (CellTiter-Glo), with or without verapamil
- Type: cell-based, human
- recorded conditions: Homo sapiens, HCT-15, HCT15 cells pre-treated with verapamil, 120 h, read-out: HCT-15 with verapamil
- Experimental: The cell line used in the anti-proliferation assays was HCT15, a human colon, colorectal carcinoma cell line. The HCT15 cells were grown in RPMI medium 1640+10% FBS. […] After the plates were shaken for 10 min and then incubated for 10 min at room temperature, paste the clear bottom with white back seal and record luminescence with Envision. The inhibition % was calculated according to the following equation: inhibition %=[1−(assay-blank)/(control-blank)]×100.
The common logarithm of IC50 in nM is what is listed.

Dear reader, for each entry below, please note its log10 of IC50.
1. CCCCCCN(C(=O)[C@@H](NC(=O)[C@@]1(C)CCCN1CCO)[C@@H](C)CC)[C@H](C[C@@H](OC(C)=O)c1nc(C(=O)N[C@@H](Cc2ccc(N)cc2)CC(C)(C)C(=O)O)cs1)C(C)C
2. CCCCCCN(C(=O)[C@@H](NC(=O)[C@H]1CCCCN1C)[C@@H](C)CC)[C@H](C[C@@H](OC(C)=O)c1nc(C(=O)N[C@@H](Cc2ccc(NCC(N)=O)cc2)CC(C)(C)C(=O)O)cs1)C(C)C (racemic)
3. CCCCCCN(C(=O)[C@@H](NC(=O)[C@H]1CCCCN1C)[C@@H](C)CC)[C@H](C[C@@H](OC(C)=O)c1nc(C(=O)N[C@@H](Cc2ccc(N)cc2)CC(C)(C)C(=O)NCC(=O)O)cs1)C(C)C (racemic)

*A*
1: -0.21; 2: -0.88; 3: 0.99

###

Exercise: for every item that follows, state its recorded IC50.
- Test system: HCT15 cells
- test summary: HCT15 anti-proliferation / cell killing assay (CellTiter-Glo), with or without verapamil
- Assay type: cell-based, human
- recorded conditions: Homo sapiens, HCT-15, HCT15 cells pre-treated with verapamil, 120 h, read-out: HCT-15 with verapamil
Answers are plain numbers, in nM.

INSERT INTO assay_data (molecule, assayed_system, quantity_measured, unit_of_measure, observed_measurement) VALUES
  ('CCCCCCN(C(=O)[C@@H](NC(=O)[C@H]1CCCCN1CCOCCOCCN)[C@@H](C)CC)[C@H](C[C@@H](OC(C)=O)c1nc(C(=O)N[C@@H](Cc2ccc(N)cc2)CC(C)(C)C(=O)O)cs1)C(C)C', 'HCT15 cells', 'IC50', 'nM', 4.73);

Query molecule follows.
Value of IC50 reported for the molecule CCCCCCN(C(=O)[C@@H](NC(=O)[C@H]1CCCCN1C)[C@@H](C)CC)[C@H](C[C@@H](OC(C)=O)c1nc(C(=O)N[C@@H](Cc2ccc(NC(=O)CN)cc2)CC(C)(C)C(=O)O)cs1)C(C)C [Compound P28, reference compound] is 0.107

###

- test summary: Plasma stability test of payloads (LC-MS/MS, half-life)
- Format: in vitro ADME
- recorded conditions: human plasma, 37° C., time points 0-24 h, read-out: Human plasma stability T1/2 (converted)
quantity measured: half-life at 2 μM

Example results:
INSERT INTO results (compound, observed_measurement) VALUES
  ('CCCCCCN(C(=O)[C@@H](NC(=O)[C@H]1CCCCN1CCO)[C@@H](C)CC)[C@H](C[C@@H](OCC)c1nc(C(=O)N[C@@H](Cc2ccc(N)cc2)CC(C)(C)C(=O)O)cs1)C(C)C', '313 h'),
  ('CCCCCCN(C(=O)[C@@H](NC(=O)[C@@]1(C)CCCN1)[C@@H](C)CC)[C@H](C[C@@H](OC(C)=O)c1nc(C(=O)N[C@@H](Cc2ccc(N)c(F)c2)CC(C)(C)C(=O)O)cs1)C(C)C [Compound P15, reference compound]', '15.1 h'),
  ('CCCCCCN(C(=O)[C@@H](NC(=O)[C@H]1CCCCN1C)[C@@H](C)CC)[C@H](C[C@@H](OC(=O)NCCO)c1nc(C(=O)N[C@@H](Cc2ccc(N)c(F)c2)CC(C)(C)C(=O)O)cs1)C(C)C (mixture of isomers)', '43.4 h');

Switching to the query record.
half-life at 2 μM recorded for this compound, CCCCCCN(C(=O)[C@@H](NC(=O)[C@H]1CCCCN1CCO)[C@@H](C)CC)[C@H](C[C@@H](OC(C)=O)c1nc(C(=O)N[C@@H](Cc2ccc(N)cc2)CC(C)(C)C(=O)O)cs1)C(C)C , is 65.9 h
